Answer each item with its documented SPOT intensity.
Molecular target: T1, Cdc25, P04821
T1 sequence (P04821 50-136, looked up): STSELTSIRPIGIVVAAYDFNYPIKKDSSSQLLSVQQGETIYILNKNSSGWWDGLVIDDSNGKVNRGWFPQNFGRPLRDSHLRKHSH
Experiment: SPOT array
Details: median of control spots 969
Just the number, please, no unit attached.

Request: Using known records, supply SPOT intensity for "MKRSRPSRSIPYTTP"
Result: 9

Request: Using known records, supply SPOT intensity for "RKQRSIPLSPIVPES"
Result: 1

Request: Using known records, supply SPOT intensity for "HRRRRVFSIPSLKSI"
Result: 131

Request: Using known records, supply SPOT intensity for "GRLRPKRIAPWHLIQ"
Result: 0
